study system: T1, rhesus monkey CD22-ECD-His protein (rhesus monkey, UniProt H9G1X2 18-686)
T1 construct: extracellular domain; also called monkey CD22 protein
T1 sequence: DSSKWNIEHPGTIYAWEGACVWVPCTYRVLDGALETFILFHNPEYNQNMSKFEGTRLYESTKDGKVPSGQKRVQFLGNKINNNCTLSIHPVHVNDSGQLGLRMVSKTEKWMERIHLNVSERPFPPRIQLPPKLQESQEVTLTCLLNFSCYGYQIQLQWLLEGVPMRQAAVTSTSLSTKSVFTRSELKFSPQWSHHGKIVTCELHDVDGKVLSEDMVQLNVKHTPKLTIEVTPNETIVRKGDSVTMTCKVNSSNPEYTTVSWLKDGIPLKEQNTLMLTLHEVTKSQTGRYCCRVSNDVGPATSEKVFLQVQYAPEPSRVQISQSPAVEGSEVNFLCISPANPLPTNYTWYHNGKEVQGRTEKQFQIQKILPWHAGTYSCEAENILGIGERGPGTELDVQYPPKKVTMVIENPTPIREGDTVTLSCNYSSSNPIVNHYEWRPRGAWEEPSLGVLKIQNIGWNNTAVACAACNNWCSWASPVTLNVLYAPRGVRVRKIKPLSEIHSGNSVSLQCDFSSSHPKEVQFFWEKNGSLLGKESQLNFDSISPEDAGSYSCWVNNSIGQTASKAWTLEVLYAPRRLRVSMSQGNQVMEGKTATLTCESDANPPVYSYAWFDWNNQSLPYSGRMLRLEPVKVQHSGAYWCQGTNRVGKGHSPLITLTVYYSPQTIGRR
method: SPR (Biacore), antibody captured on Protein A chip, rhesus CD22 in solution
pKd: −log10 of the molar value.
Outcome label depends on pKd relative to 8: at/above gives 1.0, below gives 0.0.

Reported pKd at or above 8? F1.200.11 (antibody, human IgG1, kappa, V domains shown, Chimeric IgG1 kappa) VH: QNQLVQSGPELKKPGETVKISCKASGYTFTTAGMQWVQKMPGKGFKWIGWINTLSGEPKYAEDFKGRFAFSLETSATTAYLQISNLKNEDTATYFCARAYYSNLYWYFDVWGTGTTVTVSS VL: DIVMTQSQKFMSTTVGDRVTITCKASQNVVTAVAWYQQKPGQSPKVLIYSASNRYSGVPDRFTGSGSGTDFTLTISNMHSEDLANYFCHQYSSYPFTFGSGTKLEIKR 0.0

Item HA22-hIgG1 (antibody, V domains shown) VH: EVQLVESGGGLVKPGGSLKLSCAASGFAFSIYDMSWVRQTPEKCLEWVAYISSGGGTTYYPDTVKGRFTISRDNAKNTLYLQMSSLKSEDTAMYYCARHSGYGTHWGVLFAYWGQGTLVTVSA VL: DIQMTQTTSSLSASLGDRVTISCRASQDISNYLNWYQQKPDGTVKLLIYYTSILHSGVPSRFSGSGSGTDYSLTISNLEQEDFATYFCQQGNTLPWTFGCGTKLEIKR with pKd of 8 or above? 1.0

Check if pKd >= 8 (inclusive). Item: F1.105.11 (antibody, human IgG1, kappa, V domains shown, Chimeric IgG1 kappa) VH: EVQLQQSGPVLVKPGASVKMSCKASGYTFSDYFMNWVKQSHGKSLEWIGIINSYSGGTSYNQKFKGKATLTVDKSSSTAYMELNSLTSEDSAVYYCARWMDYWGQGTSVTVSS VL: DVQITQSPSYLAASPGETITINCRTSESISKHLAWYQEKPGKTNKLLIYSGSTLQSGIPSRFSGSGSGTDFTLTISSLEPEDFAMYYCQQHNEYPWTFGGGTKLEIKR 0.0

Identify whether the reported pKd of the following binder is 8 or greater: F2.151.13 (antibody, human IgG1, lambda, V domains shown, Chimeric IgG1 lambda) VH: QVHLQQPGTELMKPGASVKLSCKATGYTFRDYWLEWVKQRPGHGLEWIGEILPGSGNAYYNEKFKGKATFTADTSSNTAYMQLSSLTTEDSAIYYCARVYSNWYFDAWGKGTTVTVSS VL: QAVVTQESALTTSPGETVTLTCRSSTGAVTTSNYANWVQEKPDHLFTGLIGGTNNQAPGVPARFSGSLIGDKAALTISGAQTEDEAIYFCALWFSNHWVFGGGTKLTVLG 0.0

Exam item: decide whether the reported pKd for F1.267.9 (antibody, human IgG1, kappa, V domains shown, Chimeric IgG1 kappa) VH: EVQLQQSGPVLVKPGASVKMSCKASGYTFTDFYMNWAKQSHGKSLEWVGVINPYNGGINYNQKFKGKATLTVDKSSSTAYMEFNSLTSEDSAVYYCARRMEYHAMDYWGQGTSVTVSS VL: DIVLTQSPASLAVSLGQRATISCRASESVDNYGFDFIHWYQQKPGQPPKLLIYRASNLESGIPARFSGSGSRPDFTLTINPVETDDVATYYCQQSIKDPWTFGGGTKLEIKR is at least 8. 1.0

hey, is pKd for this one >= 8? F1.224.1 (antibody, human IgG1, kappa, V domains shown, Chimeric IgG1 kappa) VH: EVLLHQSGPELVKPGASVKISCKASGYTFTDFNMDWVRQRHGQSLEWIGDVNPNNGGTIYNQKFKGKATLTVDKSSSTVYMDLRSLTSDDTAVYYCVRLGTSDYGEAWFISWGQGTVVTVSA VL: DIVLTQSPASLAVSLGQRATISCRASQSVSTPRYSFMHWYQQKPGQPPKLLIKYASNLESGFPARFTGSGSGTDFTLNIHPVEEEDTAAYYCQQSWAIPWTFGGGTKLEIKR 1.0
